Biological target: androgen receptor (Homo sapiens, UniProt P10275)
Assay: Co-transfection androgen antagonist assay (CV-1 cells, pRShAR, MTV-LUC reporter; AR-wt)
Details: Table 1; androgen antagonists; read-out: Potency (IC50, concentration required to reduce the maximal response by 50%)
Measured property: IC50 (nM)

Known results for compounds:
C=C1[C@@H](Cc2cc(OC)c(Br)cc2O)C(C)(C)CC[C@]1(C)O
300
C=C1[C@H](O)CCC(C)(C)[C@H]1Cc1cc(OC)c(Br)cc1O
500
COc1cc(C[C@@H]2CCCC[C@@]2(C)O)c(O)cc1Br (relative stereo)
460
C=C1C=CC[C@@H](C)[C@@H]1Cc1cc(OC)c(Br)cc1OC(C)=O
370
C=C1[C@@H](Cc2cc(OC)c(Br)cc2O)C(C)(C)CC[C@@]1(C)O
420
CC1(C)CCCC(=O)C1Cc1ccc([N+](=O)[O-])cc1 (stereo not shown)
590
C=C1C=C(C)CC(C)(C)C1Cc1ccc([N+](=O)[O-])c(C)c1 (stereo not shown)
565
C=C1C=CC(Br)C(C)(C)[C@H]1Cc1cc(OC)c(Br)cc1OC(C)=O (stereo partly shown)
230
C=C1CCCC(C)(C)C1Cc1ccccc1O (stereo not shown)
220
COc1cc(CC2C(C)(C)CC(C)=CC23CC3)c(OC(C)=O)cc1Br (stereo not shown)
250

P: C=C1C[C@H](C)CC(C)(C)[C@@H]1Cc1cc(OC)c(Br)cc1O (relative stereo)
Q: C=C1C=CCC(C)(C)C1Cc1cccc([N+](=O)[O-])c1 (stereo not shown)
R: C=C1C=CCC(C)(C)C1Cc1cc(OC)c(Br)cc1OC(C)=O (stereo not shown)
Q: Hello, I need these entries ordered by IC50, highest reading first. Thanks! To answer, write out the labels according to the requested order.
A: P, R, Q
(P: 500 nM, R: 240 nM, Q: 66 nM)

a: C=C1C=C(C)C[C@@H](C)[C@@H]1Cc1cc(OC)c(Br)cc1OC(C)=O
b: C=C1C=CCC(C)(C)C1Cc1cc(OC)c(Br)cc1O (stereo not shown)
c: C=C1[C@@H](Cc2cc(OC)c(Br)cc2O)C(C)(C)CC[C@@H]1O
Q: Hello, I need these entries ordered by IC50, highest reading first. Thanks! To answer, write out the labels according to the requested order.
A: b, a, c

---

Biological target: androgen receptor (Homo sapiens)
Construct: expressed in transfected cells; host or cells: CV-1 (monkey kidney fibroblast) cells, plasmid pRShAR, with reporter plasmid MTV-LUC
Assay: Co-transfection androgen antagonist assay (CV-1 cells, pRShAR, MTV-LUC reporter; AR-wt)
Assay type: cell-based
Conditions: CV-1; Table 1; androgen antagonists; relative to 2-Hydroxy-flutamide; read-out: Efficacy (% maximal response relative to 2-Hydroxy-flutamide)
Measured property: Emax (%)

C=C1C=CCC(C)(C)C1Cc1ccc([N+](=O)[O-])c(C)c1 (stereo not shown) [T]
88
C=C1[C@@H](Cc2cc(OC)c(Br)cc2O)C(C)(C)CC[C@]1(C)O [J]
85
C=C1CCC(C)(C)C1Cc1cc(OC)c(Br)cc1O (stereo not shown) [K]
91
CC1(C)CCCC(=O)C1Cc1ccc([N+](=O)[O-])cc1 (stereo not shown) [V]
85
COc1cc(CC2C(C)(C)CC(C)=CC23CC3)c(OC(C)=O)cc1Br (stereo not shown) [H]
89
C=C1C=CCC(C)(C)C1Cc1cccc([N+](=O)[O-])c1 (stereo not shown) [Compound A]
69
C=C1[C@@H](Cc2cc(OC)c(Br)cc2O)C(C)(C)CC[C@@]1(C)O [P]
88
C=C1[C@H](O)CCC(C)(C)[C@H]1Cc1cc(OC)c(Br)cc1O [R]
70
O=[N+]([O-])c1ccc(C[C@@H]2CCCC[C@H]2O)cc1 (relative stereo) [I]
85
C=C1C=CC[C@@H](C)[C@@H]1Cc1cc(OC)c(Br)cc1OC(C)=O [L]
88
COc1cc(CC2CCCCC2=O)c(O)cc1Br (stereo not shown) [Y]
67
C=C1C=C(C)C[C@@H](C)[C@@H]1Cc1cc(OC)c(Br)cc1OC(C)=O [O]
78
C=C1C=CCC(C)(C)C1Cc1ccccc1O (stereo not shown) [C]
82

---

Target: androgen receptor (Homo sapiens)
Construct: expressed in transfected cells; host or cells: CV-1 (monkey kidney fibroblast) cells, plasmid pRShAR, with reporter plasmid MTV-LUC
Assay: Co-transfection androgen antagonist assay (CV-1 cells, pRShAR, MTV-LUC reporter; AR-wt)
Assay type: cell-based
Details: CV-1; Table 1; androgen antagonists; relative to 2-Hydroxy-flutamide; read-out: Efficacy (% maximal response relative to 2-Hydroxy-flutamide)
Measured property: Emax (%)

a: C=C1C[C@H](C)CC(C)(C)[C@@H]1Cc1cc(OC)c(Br)cc1O (relative stereo) [S]
b: C=C1C=CC(Br)C(C)(C)[C@H]1Cc1cc(OC)c(Br)cc1OC(C)=O (stereo partly drawn) [E]
Q: // max by Emax over [ a , b ] Write down the label of the entry you select.
A: a
(a: 92%, b: 60%)

---

Molecular target: androgen receptor (Homo sapiens, UniProt P10275)
Construct: expressed in transfected cells; host or cells: CV-1 (monkey kidney fibroblast) cells, plasmid pRShAR, with reporter plasmid MTV-LUC
Experiment: Co-transfection androgen antagonist assay (CV-1 cells, pRShAR, MTV-LUC reporter; AR-wt)
Format: cell-based
Conditions: Table 2; CV-1 cells AR-wt; read-out: Efficacy, AR-wt
Description: The co-transfection assay provides a method for identifying functional ligands (either agonists which mimic, or antagonists which inhibit, the effect of hormones), and quantifying their activity for ligand-responsive receptor proteins. […] Importantly, activity in the co-transfection assay correlates very well with known in vivo activity, such that the co-transfection assay functions as a quantitative predicator of a tested compounds in vivo pharmacology. […]
Measured property: Emax (%)

Known results for compounds:
C=C1C=CCC(C)(C)C1Cc1ccccc1O (stereo not shown) [C]
82
C=C1C=CCC(C)(C)C1Cc1cccc([N+](=O)[O-])c1 (stereo not shown) [Compound A]
69
C=C1C=CCC(C)(C)C1Cc1cc(OC)c(Br)cc1OC(C)=O (stereo not shown) [F]
87
COc1cc(CC2C(C)(C)CC(C)=CC23CC3)c(OC(C)=O)cc1Br (stereo not shown) [H]
89
C=C1[C@@H](Cc2cc(OC)c(Br)cc2O)C(C)(C)CC[C@@H]1O [B]
85
O=[N+]([O-])c1ccc(C[C@@H]2CCCC[C@H]2O)cc1 (relative stereo) [I]
85
O=C1CCCCC1Cc1ccc([N+](=O)[O-])cc1 (stereo not shown) [G, 2-(4'-Nitrophenyl)methylcyclohexan-1-one]
79
C=C1[C@@H](Cc2cc(OC)c(Br)cc2O)C(C)(C)CC[C@]1(C)O [J]
85

P: C=C1C=CC(Br)C(C)(C)[C@H]1Cc1cc(OC)c(Br)cc1OC(C)=O (stereo partly shown) [E]
Q: C=C1CCCC(C)(C)C1Cc1ccccc1O (stereo not shown) [D]
Q: Hey, which is lower on measured Emax, P or Q ? Write down the label of the entry you select.
A: P

---

Biological target: androgen receptor (Homo sapiens)
Sequence (P10275 1-920): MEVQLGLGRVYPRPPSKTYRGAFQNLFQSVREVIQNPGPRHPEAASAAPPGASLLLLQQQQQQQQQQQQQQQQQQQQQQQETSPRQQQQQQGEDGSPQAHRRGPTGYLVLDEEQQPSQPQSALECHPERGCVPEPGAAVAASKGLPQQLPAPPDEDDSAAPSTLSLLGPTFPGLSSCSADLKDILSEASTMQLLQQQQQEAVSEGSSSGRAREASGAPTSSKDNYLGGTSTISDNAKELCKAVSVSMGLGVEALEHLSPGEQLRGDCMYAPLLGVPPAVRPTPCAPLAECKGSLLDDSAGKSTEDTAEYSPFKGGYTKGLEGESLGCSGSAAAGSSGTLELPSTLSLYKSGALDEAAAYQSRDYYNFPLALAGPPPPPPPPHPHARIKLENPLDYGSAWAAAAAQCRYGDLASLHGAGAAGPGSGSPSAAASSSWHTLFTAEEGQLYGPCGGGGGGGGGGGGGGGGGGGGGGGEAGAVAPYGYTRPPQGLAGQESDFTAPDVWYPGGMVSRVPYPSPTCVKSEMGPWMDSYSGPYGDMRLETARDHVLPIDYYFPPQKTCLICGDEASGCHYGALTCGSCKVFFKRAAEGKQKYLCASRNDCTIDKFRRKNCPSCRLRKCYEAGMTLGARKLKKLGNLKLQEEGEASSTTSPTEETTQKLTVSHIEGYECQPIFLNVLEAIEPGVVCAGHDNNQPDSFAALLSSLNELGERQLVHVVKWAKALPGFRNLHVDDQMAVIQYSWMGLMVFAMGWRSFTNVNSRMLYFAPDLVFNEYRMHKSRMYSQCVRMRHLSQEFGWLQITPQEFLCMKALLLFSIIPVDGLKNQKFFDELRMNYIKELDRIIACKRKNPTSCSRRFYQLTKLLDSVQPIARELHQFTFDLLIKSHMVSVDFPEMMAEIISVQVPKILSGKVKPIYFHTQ
Experiment: Co-transfection androgen antagonist assay (CV-1 cells, pRShAR, MTV-LUC reporter; AR-wt)
Settings: Table 1; androgen antagonists; read-out: Potency (IC50, concentration required to reduce the maximal response by 50%)
pIC50: −log10 of the molar value.
Measured property: pIC50

Known results for compounds:
COc1cc(CC2CCCCC2=O)c(O)cc1Br (stereo not drawn)
6.47
C=C1C=CCC(C)(C)C1Cc1ccccc1O (stereo not drawn)
6.68
O=C1CCCCC1Cc1ccc([N+](=O)[O-])cc1 (stereo not drawn)
6.60
O=[N+]([O-])c1ccc(C[C@@H]2CCCC[C@H]2O)cc1 (relative stereo)
6.54

P: C=C1CCC(C)(C)C1Cc1cc(OC)c(Br)cc1O (stereo not drawn)
Q: C=C1C=CCC(C)(C)C1Cc1ccc([N+](=O)[O-])c(C)c1 (stereo not drawn)
Q: // max by pIC50 over [ P , Q ] Write down the label of the entry you select.
A: P
